Ref: paper PMC7793522

Biological target: T1, TIL (tumour-infiltrating T lymphocytes (so in the source)) peptide on HLA-C*08:02 (human)
T1 peptide: GADGVGKSAL
Experiment: data from [14]; method not given; soluble, other
PROPERTY: Kd (µM)
Give the value in µM but do not write µM after it.

Request: # return recorded Kd for entry TCR10 (TCR) alpha TRAV12-02*01 CDR3: AAAMDSSYKLIF beta TRBV10-2*01 CDR3: ASSDPGTEAFF
Result: 6.7
